target entity: partially purified aldose reductase enzyme obtained from calf lens (Bos taurus)
Construct: partially purified aldose reductase enzyme obtained from calf lens; from tissue; host or cells: calf lens
assay summary: inhibition of isolated aldose reductase enzyme activity (procedure of S. Hayman et al., as modified by K. Sestanj et al.)
Format: biochemical
condition: 10^-4 M; calf lens enzyme; read-out: Percent Inhibition (%) of aldose reductase enzyme activity
measurement name: inhibition at 100 µM (%)
# unit: % | format: bare number

Annotate the molecule O=C1NC(=O)C2(CCOc3ccc(F)cc32)N1 (single isomer, unassigned) [d-Isomer of Ex. I] with its measured inhibition at 100 µM.
100

Annotate the molecule O=C1NC(=O)C2(CCOc3ccc(F)cc32)N1 (racemic) [dl-Cpd. of Prep. B] with its measured inhibition at 100 µM.
85

Annotate the molecule O=C1NC(=O)C2(CCSc3ccc(F)cc32)N1 (racemic) [dl-Cpd. of Prep. C] with its measured inhibition at 100 µM.
81

Annotate the molecule O=C1NC(=O)C2(CCSc3ccc(F)cc32)N1 (single isomer, unassigned) [d-Isomer of Ex. II] with its measured inhibition at 100 µM.
89

----------
Please respond with reported Percent Inhibition (%) of aldose reductase enzyme activity for every item in the list.
target entity: partially purified aldose reductase enzyme obtained from calf lens (Bos taurus)
Construct: partially purified aldose reductase enzyme obtained from calf lens; from tissue; host or cells: calf lens
assay summary: inhibition of isolated aldose reductase enzyme activity (procedure of S. Hayman et al., as modified by K. Sestanj et al.)
Format: biochemical
condition: 10^-7 M; calf lens enzyme
# unit: % | format: bare number

Annotate the compound O=C1NC(=O)C2(CCOc3ccc(F)cc32)N1 (single isomer, unassigned) [d-Isomer of Ex. I] with its measured Percent Inhibition (%) of aldose reductase enzyme activity.
39

Annotate the compound O=C1NC(=O)C2(CCOc3ccc(F)cc32)N1 (single isomer, unassigned) [1-Isomer of Ex. I] with its measured Percent Inhibition (%) of aldose reductase enzyme activity.
-4

Annotate the compound O=C1NC(=O)C2(CCSc3ccc(F)cc32)N1 (single isomer, unassigned) [d-Isomer of Ex. II] with its measured Percent Inhibition (%) of aldose reductase enzyme activity.
74

Annotate the compound O=C1NC(=O)C2(CCSc3ccc(F)cc32)N1 (single isomer, unassigned) [1-Isomer of Ex. II] with its measured Percent Inhibition (%) of aldose reductase enzyme activity.
10

----------
target entity: partially purified aldose reductase enzyme obtained from calf lens (Bos taurus)
Construct: partially purified aldose reductase enzyme obtained from calf lens; from tissue; host or cells: calf lens
assay summary: inhibition of isolated aldose reductase enzyme activity (procedure of S. Hayman et al., as modified by K. Sestanj et al.)
Type: biochemical
condition: 10^-6 M; calf lens enzyme
Source text: […]
measurement name: Percent Inhibition (%) of aldose reductase enzyme activity
# unit: % | format: bare number

Annotate the compound O=C1NC(=O)C2(CCOc3ccc(F)cc32)N1 (single isomer, unassigned) [1-Isomer of Ex. I] with its measured Percent Inhibition (%) of aldose reductase enzyme activity.
23

Annotate the compound O=C1NC(=O)C2(CCSc3ccc(F)cc32)N1 (single isomer, unassigned) [1-Isomer of Ex. II] with its measured Percent Inhibition (%) of aldose reductase enzyme activity.
11

Annotate the compound O=C1NC(=O)C2(CCOc3ccc(F)cc32)N1 (single isomer, unassigned) [d-Isomer of Ex. I] with its measured Percent Inhibition (%) of aldose reductase enzyme activity.
98

Annotate the compound O=C1NC(=O)C2(CCSc3ccc(F)cc32)N1 (single isomer, unassigned) [d-Isomer of Ex. II] with its measured Percent Inhibition (%) of aldose reductase enzyme activity.
76
